System: HOP-62 NSCLC
Test: NCI tumour cell line growth inhibition, 48 h
RECORDED_ENDPOINT: GI50

Answered examples (5):
{"MOLECULE": "NC(=O)c1sc(-n2cnc3ccccc32)cc1OCc1ccccc1Br", "RECORDED_ENDPOINT": "GI50", "VALUE": "3.67 µM"}
{"MOLECULE": "COc1cc(CNc2cnc3cc(N)cc(N)c3n2)cc(OC)c1", "RECORDED_ENDPOINT": "GI50", "VALUE": "14.9 µM"}
{"MOLECULE": "COc1ccc2c(c1)/C(=C/c1c(C)nc3sc(C)nn13)C(=O)N2", "RECORDED_ENDPOINT": "GI50", "VALUE": "4.35 µM"}
{"MOLECULE": "OCc1ccc(N2CCC2c2ccc(F)cc2)cc1Cl (stereo unspecified)", "RECORDED_ENDPOINT": "GI50", "VALUE": "10.1 µM"}
{"MOLECULE": "Clc1ccc2c(NCCCCNc3nc(N4CCCCC4)nc4ccccc34)ccnc2c1", "RECORDED_ENDPOINT": "GI50", "VALUE": "1.9 µM"}

Output GI50 of CSc1nc2c(c(=O)[nH]1)N=C1c3ccccc3C(=O)C1C(c1ccccc1)N2 (stereo unspecified)
5.37 µM

====

Reported TGI values follow for various compounds
Test system: UO-31 renal
Test: NCI tumour cell line growth inhibition, 48 h
# number only, unit µM dropped from output

{"MOLECULAR_STRING": "O=S(=O)(NC1=NCCN1C(=S)SN1CCn2c1nsc2=S)c1ccc(OC(F)(F)F)cc1", "TGI / µM": 41.5}
{"MOLECULAR_STRING": "Cc1ccc(C(=O)/C(=C/c2ccc([N+](=O)[O-])cc2)SCc2ccc(Cl)cc2)cc1", "TGI / µM": 2.66}
{"MOLECULAR_STRING": "Cc1cc(I)cc(CN(C)CCCCN2CCCCC2)c1O", "TGI / µM": 36.6}

Kindly consider the entry below.
Answer with reported TGI of `NC(=O)c1cccc2cn(-c3ccc([C@@H]4CCCNC4)cc3)nc12`
25.2

====

Tested on: KM12 colon
Test: NCI tumour cell line growth inhibition, 48 h
RECORDED_ENDPOINT: TGI

{"COMPOUND": "CC1(C)CCc2c(c3c(c4c(=O)c(O)c(-c5ccc(O)cc5)oc24)OC(C)(C)CC3)O1", "TGI": "> 100 µM"}
{"COMPOUND": "O=C1CCC23CC(C=CC=C12)n1c(=O)n(-c2ccccc2)c(=O)n13 (stereo unspecified)", "TGI": "> 100 µM"}
{"COMPOUND": "NNC(=O)Nc1cccnc1", "TGI": "> 100 µM"}
{"COMPOUND": "Cc1ccccc1-n1c(=O)c2ncn(CCCl)c2n(-c2ccccc2C)c1=S", "TGI": "> 100 µM"}
{"COMPOUND": "COC(CN1C(=O)c2cccc3cccc(c23)C1=O)OC", "TGI": "> 100 µM"}

Next:
Respond only with TGI recorded for `CC(=O)Nc1ccc(-c2nnc(SCC(=O)Nc3ccc([N+](=O)[O-])cc3)o2)cc1`
27.7 µM

====

Below, each entry is listed with its recorded TGI.
Test system: K-562 leukemia
Experiment: NCI tumour cell line growth inhibition, 48 h

{"COMPOUND": "O=C1CC(c2ccc3c(c2)OCO3)Nc2ccccc21 (stereo not given)", "TGI": "> 100 µM"}
{"COMPOUND": "NNC(=O)Nc1cccnc1", "TGI": "> 100 µM"}
{"COMPOUND": "CC(C)C/C(CC(=O)CCC(=O)Nc1ccccc1[N+](=O)[O-])=N\\NC(=O)c1cc2ccccc2cc1O", "TGI": "> 100 µM"}

Output reported TGI of the compound O=C(/C=C/c1ccccc1)NC1C=Nc2ccc(Cl)cc2NC1=O (stereo not given) on K-562 leukemia.
59 µM

Report value only: TGI, K-562 leukemia, `O=C(O)c1cccc2c1/C(=N/Nc1ccccc1)CC2`
> 100 µM

State the measured TGI (K-562 leukemia) of CC(=O)O[C@H]1C(=O)[C@]2(C)[C@@H](OC(=O)OCCC(O)CO)C[C@H]3OC[C@@]3(OC(C)=O)[C@H]2[C@H](OC(=O)c2ccccc2)[C@]2(O)C[C@H](OC(=O)[C@H](O)[C@@H](NC(=O)c3ccccc3)c3ccccc3)C(C)=C1C2(C)C (stereo not given in full)
> 100 µM

For K-562 leukemia, give TGI of the listed compound: CC(C)C1/C(=N/O)CC(c2ccccc2)N(N=O)C1c1ccccc1 (stereo not given)
> 100 µM

State TGI (K-562 leukemia) of COC1(OC)CCC2C1C1CCC(OC)(OC)C21 (stereo not given) .
> 50 µM

The measured values listed here are drawn from PubChem BioAssay (NCI).
